- Tested on: OVCAR-4 ovarian
- assay-summary: NCI-60 one-dose screen, 48 h (100 = growth as untreated, 0 = no growth, -100 = all killed)
- test-parameters: 10 µM unless noted
About 83,000 compounds went through this panel and 20% of them were active in at least one assay; those are over-represented in the sample as a whole.
growth reference

| compound | target-of-assay | growth / % |
| --- | --- | --- |
| COc1cc2c(Nc3ccc(NC(=O)Nc4ccc(Cl)c(C(F)(F)F)c4)c(Cl)c3)ncnc2cc1OCCCN1CCN(C)CC1 | OVCAR-4 ovarian | -9.14 |
| OCCNc1nc(NCCO)nc(Nc2ccc(C3=NN(c4cc(Cl)cc(Cl)c4)C(c4ccc(Cl)cc4)C3)cc2)n1 (stereo not drawn) | OVCAR-4 ovarian | -17.6 |
| N#CC1C(c2ccc(Cl)cc2)=Nc2c(c(-c3ccccc3)nn2-c2ccccc2)C12C(=O)Nc1ccc(Cl)cc12 (stereo not drawn) | OVCAR-4 ovarian | 34.4 |
| C#CCOC(=O)[C@]1(C)CCC[C@]2(C)[C@H]3C[C@H]4C(C(C)C)=C[C@]3(CC[C@H]21)[C@@H]1C(=O)CCC(=O)[C@@H]14 | OVCAR-4 ovarian | 73.9 |
| CN1CC=C(c2cc(NC(=O)Nc3ccc(Oc4ccnc(NC(=O)C5CC5)c4)c(F)c3)cc(C(F)(F)F)c2)CC1 | OVCAR-4 ovarian | 3.24 |
| COc1ccc(-c2cs/c(=N\N=C\c3ccc(O)cc3O)n2/N=C/c2ccc(O)cc2O)cc1 | OVCAR-4 ovarian | -7.88 |
| COc1ccc2nc3nc4ccc[nH]c4cc3c2c1 | OVCAR-4 ovarian | 92.2 |
| O=C1CCC23OC(C(O)c4ccccc4N12)C1C(Br)=NOC13 (stereo not drawn) | OVCAR-4 ovarian | 95.4 |

====

- Test system: SK-OV-3 ovarian
- assay-summary: NCI-60 one-dose screen, 48 h
- test-parameters: 10 µM unless noted
- Experimental: Growth inhibition of the SK-OV-3 human tumor cell line is measured as a screen for anti-cancer activity. Cells are grown in 96 well plates and exposed to the test compound for 48 hours. Compounds are tested at a single concentration, which is 10^-5 M for most compounds. The reported endpoint is percent growth (GI% or GIPRCNT), where numbers from 0 - 100% represent growth inhibition, and numbers from -100% - 0 represent cell death. For example, a value of 40 represents 60% growth inhibition. […]
This is part of a sample that, as a whole, favours compounds with a hit. Of some 83,000 tested, about 20% had one in any assay. The source made the active and inactive calls. How the source made its calls: active means growth percent below 10; inactive means the rest.
Outcomes: active, inactive

| molecule | qualitative-label |
| --- | --- |
| CSc1nc(-c2cccs2)c2c(N)[nH]nc2n1 | inactive |
| CCOC(=O)C1=C(C)n2nc(CC#N)c(C#N)c2NC1c1ccc(Cl)cc1 (stereo unspecified) | inactive |
| COc1ccc2c(c1)OC13Oc4cc(OC)ccc4C=C1CCCCC3=C2 | inactive |
| C=C1C(=O)O[C@H]2[C@H]1CC/C(COC(=O)CCCCCCCCC(=O)OC/C1=C/CC[C@@]3(C)O[C@H]3[C@H]3OC(=O)C(=C)[C@@H]3CC1)=C\CC[C@@]1(C)O[C@@H]21 | inactive |
| CCn1cc(C(=O)O)c(=O)c2cc(F)c(N3CCN(CC(=O)Nc4ccc(/C(C)=N/OC)cc4)CC3)cc21 | inactive |
| CO[C@@]12C=C[C@@]34CCC(=O)N3c3ccccc3[C@@H](O1)C4C2 | inactive |
| O=c1[nH]c2ccccc2cc1-c1nc2ccncc2[nH]1 | inactive |
| Cc1ccc(C(=O)/C(=C/c2ccc([N+](=O)[O-])cc2)S(=O)Cc2ccccc2)cc1 (stereo unspecified) | inactive |
| [2H]c1cc2c(c([2H])c1F)/C(=C/c1[nH]c(C)c(C(=O)NCCN(CC)CC)c1C)C(=O)N2 | inactive |
| Cc1ccc2nc3nc4ccc[nH]c4cc3c2c1 | inactive |
| COC(=O)/C=C/c1cc(OC(C)=O)c2c(c1)C(C(=O)OC)C(c1ccc(OC(C)=O)c(OC(C)=O)c1)O2 (stereo unspecified) | inactive |
| C/C(=N/Nc1nc2ccccc2n1C)c1ccccn1 | active |
| O=C1NC(c2ccc(F)cc2)N=C2C(c3ccccc3)=NOC12 (stereo unspecified) | inactive |
| COc1ccc(Nc2nc(SCC(C)C)nc(-c3ccc(F)cc3)c2C#N)cc1 | inactive |
| COC1=CC2C=C(C3N(c4ccccc4)NC(=O)[C@@H]4CCCN34)C(=O)NC2C=C1 (stereo partly specified) | inactive |
| COc1cc(NCC(=O)Nc2cc(Nc3ccc(C)cc3)ncn2)c(Cl)c(OC)c1Cl | inactive |
| CN1CCN(S(=O)(=O)O[C@@H]2C(=O)N(c3cc4c5ccccc5ccc4c4ccccc34)[C@H]2c2ccc(F)cn2)CC1 | inactive |
| CCOC(=O)c1c(C)nc2c(c1N)/C(=C/c1ccc[nH]1)C(=O)N2Cc1ccc(C(F)(F)F)cc1 | inactive |
| CC1(C)[C@@H](O)CC[C@]2(C)[C@H]3CC[C@@H]4[C@H]5[C@H](c6cn(-c7ccccc7)nn6)CC[C@]5(CO)CC[C@@]4(C)[C@]3(C)CC[C@@H]12 | inactive |
| CCOC(=O)NCCc1nc2c([nH]1)c(=O)n(C)c(=O)n2C | inactive |
| COc1cccc(C(=O)OCCn2nc3c4c(cccc42)C(=O)c2ccccc2-3)c1O | inactive |
| COc1ccc(N(C)c2nc(Cl)nc3ccn(C)c23)cc1 | active |
| O=S(=O)(O)c1ccc(N=NSc2ccc3ccccc3c2)cc1 | inactive |
| C[C@]12CC[C@@H]3c4ccc(O)cc4CC[C@H]3[C@@H]1C[C@H](O)C2 | inactive |
| O=C(CSC(=S)N1CCCCC1)Nc1ccccc1 | inactive |
| Cc1c(Cl)cccc1NC(=O)c1sc2nc3c(cc2c1N)CN(Cc1ccccc1)CC3 | inactive |
| COC(=O)c1oc2c(C(=O)/C=C/c3ccc(OC)cc3)c(OCCCN3CCCCC3)ccc2c1C | inactive |
| Cc1ccc(-c2nc(C#N)c(S(=O)(=O)N(C)CCO)o2)cc1 | inactive |
| O=C1CC23OC4ON=C(Br)C4C2C(O)c2ccccc2N13 (stereo unspecified) | inactive |
| C=C1C(=O)O[C@H]2[C@H]1CC/C(COC(=O)c1cccnc1N)=C\CC[C@@]1(C)O[C@@H]21 | inactive |
| CCOC(=O)C1=C(C)n2nc(CC#N)c(C#N)c2NC1c1ccc(CC)cc1 (stereo unspecified) | inactive |
| COc1ccc(-c2nc(C#N)c(NCC(c3ccc(Cl)cc3)N3CCCCC3)o2)cc1 (stereo unspecified) | inactive |
| COc1ccc(/C=C(/C(=O)N2CCN(Cc3ccccc3)CC2)c2cc(OC)c(OC)c(OC)c2)cc1O | inactive |
| C=C1C(=O)O[C@H]2[C@H]1CC/C(COC(=O)N1CCC[C@H]1C(=O)Nc1ccc(OC)c(C(N)=O)c1O)=C\CC[C@@]1(C)O[C@@H]21 | inactive |
| COc1cc2cc(c1Cl)N(C)C(=O)C[C@H](OC(=O)[C@H](C)N(C)C(=O)CCS)C[C@]1(C)O[C@H]1[C@H](C)[C@@H]1C[C@@](O)(NC(=O)O1)[C@H](OC)/C=C/C=C(\C)C2 | inactive |
| C=C(C)[C@@H]1CC[C@]2(C(=O)N3CCN(C)CC3)CC[C@]3(C)[C@H](CC[C@@H]4[C@@]5(C)C/C(=C/c6ccco6)C(=O)C(C)(C)[C@@H]5CC[C@]43C)[C@@H]12 | inactive |
